target: JAK3 (h) (Homo sapiens, UniProt P52333); construct: purchased Eurofins; assay: Radioisotope labeling kinase assay (Eurofins), JAK3; type: biochemical; settings: 1 μM compound; read-out: Inhibitory activity per unit concentration/Activity % JAK3 (h)
Sequence (P52333 whole entry): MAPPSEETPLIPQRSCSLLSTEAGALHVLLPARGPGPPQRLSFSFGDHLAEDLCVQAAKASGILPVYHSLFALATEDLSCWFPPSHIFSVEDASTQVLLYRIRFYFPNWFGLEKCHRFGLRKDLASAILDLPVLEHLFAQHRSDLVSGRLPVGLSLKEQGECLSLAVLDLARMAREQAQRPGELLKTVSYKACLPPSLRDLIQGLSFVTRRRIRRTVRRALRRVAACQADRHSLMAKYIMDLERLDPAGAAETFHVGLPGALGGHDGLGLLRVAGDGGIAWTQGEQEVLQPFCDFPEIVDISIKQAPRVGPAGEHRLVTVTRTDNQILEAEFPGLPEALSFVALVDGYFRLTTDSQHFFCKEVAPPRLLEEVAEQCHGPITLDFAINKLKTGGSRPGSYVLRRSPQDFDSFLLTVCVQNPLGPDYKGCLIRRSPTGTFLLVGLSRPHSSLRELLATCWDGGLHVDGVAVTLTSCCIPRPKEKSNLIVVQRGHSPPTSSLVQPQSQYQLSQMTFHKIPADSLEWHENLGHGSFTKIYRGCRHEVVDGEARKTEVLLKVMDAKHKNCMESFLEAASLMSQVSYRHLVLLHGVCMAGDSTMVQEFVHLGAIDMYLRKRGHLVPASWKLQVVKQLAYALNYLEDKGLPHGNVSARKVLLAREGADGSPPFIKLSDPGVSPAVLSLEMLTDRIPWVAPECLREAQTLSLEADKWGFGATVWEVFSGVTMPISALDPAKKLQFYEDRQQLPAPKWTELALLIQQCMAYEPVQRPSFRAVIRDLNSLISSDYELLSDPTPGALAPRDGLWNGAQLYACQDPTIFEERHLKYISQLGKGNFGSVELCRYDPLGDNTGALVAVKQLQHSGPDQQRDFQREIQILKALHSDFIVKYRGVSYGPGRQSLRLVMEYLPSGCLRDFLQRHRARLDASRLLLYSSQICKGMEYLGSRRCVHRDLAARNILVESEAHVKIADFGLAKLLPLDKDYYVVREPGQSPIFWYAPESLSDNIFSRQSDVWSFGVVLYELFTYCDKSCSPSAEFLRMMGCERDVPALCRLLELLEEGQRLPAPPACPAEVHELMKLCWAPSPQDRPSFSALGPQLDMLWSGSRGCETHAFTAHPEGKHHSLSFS
property-name: activity at 1 µM (%)

Reported activity at 1 µM for O=C(/C=C/CN1CCOCC1)Nc1cc2cc(c1)Nc1nccc(n1)-c1cccc(c1)COC/C=C/COC2 [XVI-3] : what is it? 8

Reported activity at 1 µM for C/C=C/C(=O)Nc1cc2cc(c1)Nc1nccc(n1)-c1cccc(c1)COC/C=C/COC2 [XVI-4] : what is it? 11

1. O=C(C#CCN1CCOCC1)Nc1cc2cc(c1)Nc1nccc(n1)-c1cccc(c1)COC/C=C/COC2 [XVII-3]
2. C/C=C/C(=O)Nc1cc2cc(c1)Nc1nccc(n1)-c1cccc(c1)COC/C=C/CN(C)C2 [XVI-28]
Input pair: 1 , 2 . Output: entry with lower activity at 1 µM. # respond with the chosen item's label 1

====

target: Flt3 (D835Y) (h) (Homo sapiens, UniProt P36888, D835Y); construct: purchased Eurofins; experiment: Radioisotope labeling kinase assay (Eurofins), Flt3 (D835Y); assay type: biochemical; settings: 1 μM compound; read-out: Inhibitory activity per unit concentration/Activity % Flt3 (D835Y) (h)
property-name: activity at 1 µM (%)

As a guide, the following entries are already answered.
Reported activity at 1 µM for CN1C/C=C/COCc2cccc(c2)-c2ccnc(n2)Nc2cc(cc(NC(=O)/C=C/c3cnc[nH]3)c2)C1 : what is it? 0

Reported activity at 1 µM for O=C(/C=C/COc1cc2cc(c1)Nc1nccc(n1)-c1cccc(c1)COC/C=C/COC2)N1CCOCC1 : what is it? 3

A. C1=C/COCc2cccc(c2)-c2ccnc(n2)Nc2cc(cc(OC/C=C/CN3CCCC3)c2)COC/1
B. O=C(O)/C=C/C(=O)Nc1cc2cc(c1)Nc1nccc(n1)-c1cccc(c1)COC/C=C/COC2
Response body: label of entry with the larger activity at 1 µM; valid values A , B . # respond with the chosen item's label A
(A: 7%, B: 1%)

====

biological target: JAK3 (h) (Homo sapiens); construct: purchased Eurofins; assay: Radioisotope labeling kinase assay (Eurofins), JAK3; format: biochemical; conditions: 1 μM compound; read-out: Inhibitory activity per unit concentration/Activity % JAK3 (h)
property-name: activity at 1 µM (%)

Reported activity at 1 µM for O=C(/C=C/C(=O)N1CCNCC1)Nc1cc2cc(c1)Nc1nccc(n1)-c1cccc(c1)COC/C=C/COC2 : what is it? 6

1. CN1C/C=C/COCc2cccc(c2)-c2ccnc(n2)Nc2cc(cc(NC(=O)/C=C/CN3CCOCC3)c2)C1
2. CN1C/C=C/COCc2cccc(c2)-c2ccnc(n2)Nc2cc(cc(NC(=O)/C=C/C(F)(F)F)c2)C1
Input pair: 1 , 2 . Output: entry with lower activity at 1 µM. # respond with the chosen item's label 2
(2: 36%, 1: 61%)

====

system: TT Human medullary thyroid cancer; test: MTT cell proliferation inhibition, TT; assay type: cell-based; settings: 72 hours
pIC50: −log10 of the molar value.
property-name: pIC50

P. O=C(/C=C/CN1CCOCC1)Nc1cc2cc(c1)Nc1nccc(n1)-c1cccc(c1)COC/C=C/COC2 [XVI-3]
Q. O=C(/C=C/CN1CCCC1)Nc1cc2cc(c1)Nc1nccc(n1)-c1cccc(c1)COC/C=C/COC2 [XVI-1]
Input pair: P , Q . Output: entry with lower pIC50. # respond with the chosen item's label P
(P: 5.83, Q: 6.84)
